Please go through the items and note down their growth AUC.
- Tested on: Streptococcus salivarius
- Run Description: growth AUC relative to DMSO control (median of replicates) (fraction); higher = more growth (less inhibition), active = hit call of the paper
- Run Parameters: 20 µM; 24 h
Answers are plain numbers.

compound=C[C@@H](Oc1ccc(Oc2ncc(C(F)(F)F)cc2Cl)cc1)C(=O)O subject_of_test="Streptococcus salivarius" value=0.999
compound="OCC(O)CCl (centres undefined)" subject_of_test="Streptococcus salivarius" value=1
compound=COc1nn(CSP(=S)(OC)OC)c(=O)s1 subject_of_test="Streptococcus salivarius" value=0.985
compound=CCOP(=S)(OCC)SCSC(C)(C)C subject_of_test="Streptococcus salivarius" value=0.996
compound=O=C(O)C(F)(F)C(F)(F)C(F)(F)C(F)(F)C(F)(F)C(F)(F)C(F)(F)C(F)(F)C(F)(F)F subject_of_test="Streptococcus salivarius" value=0.942
compound=CCOP(=S)(OCC)Oc1nc(Cl)n(C(C)C)n1 subject_of_test="Streptococcus salivarius" value=1
compound=Cc1ccc2nc3sc(=O)sc3nc2c1 subject_of_test="Streptococcus salivarius" value=0.983
compound=N#CCNC(=O)c1cnccc1C(F)(F)F subject_of_test="Streptococcus salivarius" value=0.995
compound=Cc1c(COC(=O)[C@@H]2[C@H](/C=C(\Cl)C(F)(F)F)C2(C)C)cccc1-c1ccccc1 subject_of_test="Streptococcus salivarius" value=0.949
compound=Nc1nc(N)nc(NC2CC2)n1 subject_of_test="Streptococcus salivarius" value=0.981

Parameters: items (list). Returns: growth AUC for each item.
1. COC(=O)C1(O)c2ccccc2-c2ccccc21
2. Clc1ccc(C2(Cn3cncn3)OCCO2)c(Cl)c1
3. N#Cc1c[nH]cc1-c1cccc(Cl)c1Cl
4. O=C(Nc1ccccc1)c1ccccc1I
5. OC(c1ccc(F)cc1)(c1cncnc1)c1ccccc1Cl (centres undefined)

Data returned:
1
0.915
0.929
1.03
0.996

Parameters: items (list). Returns: growth AUC for each item.
1. CNC(=O)Oc1cc(C)cc(C(C)C)c1
2. CCOP(=O)(OCC)O/C(=C/Br)c1ccc(Cl)cc1Cl
3. O=C1C(Cl)=C(Cl)C(=O)c2ccccc21
4. CC1(C)C(C(=O)OC(C#N)c2cccc(Oc3ccccc3)c2)C1(C)C (centres undefined)

Data returned:
1: 0.935; 2: 0.975; 3: 0.955; 4: 0.957
